testedOn: HumRADA2 (Pyrococcus furiosus, UniProt O74036, D220A/DEL288-314/E219S/I169M/K221M/V202Y/Y201A)
assayOverview: Isothermal titration calorimetry (ITC), direct binding to HumRADA2
studyConditions: ITC thermodynamic binding profile, Table S1
Please note: YES applies when -TDS is 0.9 kcal/mol or greater, and NO applies otherwise.

Recorded results for 5 compounds are shown here.
compound: CNC(=O)C(Cc1c[nH]c2ccccc12)NC(C)=O (stereo not shown)
categoryLabel: YES

compound: CNC(=O)C(N)Cc1c[nH]c2ccccc12 (stereo not shown)
categoryLabel: YES

compound: O=S(=O)(NCCc1c[nH]c2ccccc12)c1cc(Br)c(Cl)s1
categoryLabel: NO

compound: COC(=O)[C@@H](N)Cc1c[nH]c2ccccc12
categoryLabel: YES

compound: Cl.N[C@@H](Cc1c[nH]c2ccccc12)C(=O)OCCc1ccccc1
categoryLabel: NO

State whether the measured -TDS reaches 0.9 kcal/mol, counting equality as reaching it, for O=C(NC(Cc1c[nH]c2ccccc12)C(=O)OCCc1ccccc1)c1ccccc1 (stereo not shown)
NO

====

Item-by-item account of pKd
testedOn: HumRADA2 (Pyrococcus furiosus, UniProt O74036, D220A/DEL288-314/E219S/I169M/K221M/V202Y/Y201A)
assayOverview: Isothermal titration calorimetry (ITC), direct binding to HumRADA2
Convention used: pKd is expressed as -log10 of the molar concentration.

Some entries whose results are on file:
molecule: O=[N+]([O-])c1cccc(S(=O)(=O)NCCc2c[nH]c3ccccc23)c1
pKd: 4.74
//
molecule: Cc1ccccc1CCOC(=O)[C@@H](N)Cc1c[nH]c2ccccc12.Cl
pKd: 4.52
//
molecule: Cl.N[C@@H](Cc1c[nH]c2ccccc12)C(=O)OCCc1ccccc1O
pKd: 4.57

Cl.N[C@@H](Cc1c[nH]c2ccccc12)C(=O)OCCc1c[nH]c2ccccc12 yielded pKd of 4.46

COc1ccc(S(=O)(=O)NCCc2c[nH]c3ccccc23)cc1 yielded pKd of 3.92

====

testedOn: HumRADA2 (Pyrococcus furiosus, UniProt O74036, D220A/DEL288-314/E219S/I169M/K221M/V202Y/Y201A)
assayOverview: Isothermal titration calorimetry (ITC), direct binding to HumRADA2
studyConditions: substituted tryptamine series (Table 2)
Text: We previously published fragment-screening results using a humanised RAD51 surrogate from Pyrococcus furiosus, which we refer to as HumRADA2 (previously referred to as MAYSAM RadA).[23] In this surrogate protein, the N-terminal domain with the oligomerisation sequence was removed to monomerise the protein and expose the FxxA binding site for screening, and six surface residues were mutated around the Phe pocket in order to humanise the protein in this region. Supplemental Experimental Procedures […]
Property: LE (ligand efficiency); scope: individual compounds

Here are 5 compounds together with their reported answers.
entrySmiles: Nc1cccc(S(=O)(=O)NCCc2c[nH]c3ccccc23)c1
observedValue: 0.28 kcal mol−1 per heavy atom
//
entrySmiles: COc1ccc(S(=O)(=O)NCCc2c[nH]c3ccccc23)cc1
observedValue: 0.23 kcal mol−1 per heavy atom
//
entrySmiles: Cc1noc(C)c1S(=O)(=O)NCCc1c[nH]c2ccccc12
observedValue: 0.25 kcal mol−1 per heavy atom
//
entrySmiles: O=S(=O)(NCCc1c[nH]c2ccccc12)c1ccccc1Br
observedValue: 0.34 kcal mol−1 per heavy atom
//
entrySmiles: O=S(=O)(NCCc1c[nH]c2ccccc12)c1ccc(Br)s1
observedValue: 0.32 kcal mol−1 per heavy atom

// LE (ligand efficiency) lookup, compound = O=S(=O)(NCCc1c[nH]c2ccccc12)c1c(Cl)sc(Cl)c1Br , result: 0.33 kcal mol−1 per heavy atom

Kindly note the recorded LE (ligand efficiency) for O=S(=O)(NCCc1c[nH]c2ccccc12)c1cc(Br)c(Cl)s1 , which is 0.36 kcal mol−1 per heavy atom

For this compound ( O=S(=O)(NCCc1c[nH]c2ccccc12)c1cc(Br)c(Br)s1 ), measured LE (ligand efficiency) is 0.27 kcal mol−1 per heavy atom

Sample O=S(=O)(NCCc1c[nH]c2ccccc12)c1ccccc1 ; LE (ligand efficiency) observed: 0.30 kcal mol−1 per heavy atom

The recorded LE (ligand efficiency) for entry O=S(=O)(NCCc1c[nH]c2ccccc12)c1ccc(Cl)s1 equals 0.32 kcal mol−1 per heavy atom

Sourced from paper PMC4506530
